Kindly return criterion met if reported logP is no lower than 2; return criterion not met if it is lower.

CPD SMILES	CLASS LABEL
O=C(NN=Cc1c(O)ccc2ccccc12)c1ccc([N+](=O)[O-])cc1	criterion met
Cc1ncc(CO)c(C=NNC(=O)c2cccs2)c1O	criterion met
Cc1ncc(CO)c(C=NNC(=O)c2ccc(N)cc2)c1O	criterion not met
O=C(NN=Cc1ccccc1O)c1cccc(Br)c1	criterion met
Nc1ccc(C(=O)NN=Cc2ccccc2O)cc1	criterion met
Cc1ncc(CO)c(C=NNC(=O)c2cccc(Cl)c2)c1O	criterion met
O=C(NN=Cc1ccccc1O)c1ccc(O)cc1	criterion met
O=C(NN=Cc1ccccc1O)c1ccco1	criterion met
O=C(NN=Cc1ccccc1O)c1cccc(F)c1	criterion met
O=C(NN=Cc1ccccc1O)c1ccncc1	criterion met
CC(C)(C)c1ccc(C(=O)NN=Cc2ccccc2O)cc1	criterion met
Cc1ncc(CO)c(C=NNC(=O)c2ccc(O)cc2)c1O	criterion not met
Cc1ncc(CO)c(C=NNc2ccccn2)c1O	criterion met
Cc1ncc(CO)c(C=NNC(=O)c2ccccc2)c1O	criterion met
O=C(NN=Cc1c(O)ccc2ccccc12)c1ccco1	criterion met
Cc1ncc(CO)c(C=NNC(=O)c2ccc(C(C)(C)C)cc2)c1O	criterion met
O=C(NN=Cc1ccccc1O)c1ccc([N+](=O)[O-])cc1	criterion met
Cc1ncc(CO)c(C=NNC(=O)c2ccncc2)c1O	criterion not met
Cc1ncc(CO)c(C=NNC(=O)c2cccc(Br)c2)c1O	criterion met
Nc1ccc(C(=O)NN=Cc2c(O)ccc3ccccc23)cc1	criterion met
Cc1ncc(CO)c(C=NNC(=O)c2ccc([N+](=O)[O-])cc2)c1O	criterion not met
O=C(NN=Cc1ccccc1O)c1cccs1	criterion met
O=C(NN=Cc1ccccc1O)c1ccccc1	criterion met
CC(=O)NN=Cc1c(CO)cnc(C)c1O	criterion not met
Cc1ncc(CO)c(C=NNC(=O)c2cccc(F)c2)c1O	criterion met
Cc1ncc(CO)c(C=NNC(=O)c2ccco2)c1O	criterion not met
